Molecular target: HLA-A*68:02
Test: IEDB peptide-MHC binding, cellular MHC/competitive/fluorescence; bounds were set here for any values at or beyond the usual limits of such assays
Conditions: source organism: Vaccinia virus WR
pIC50: −log10 of the molar value.
Mark NO for pIC50 values under 5, and YES for everything at or above.

>>> df
    primary_sequence  assigned_class
 0        EIITGNKVKT              NO
 1        ELENKKVEYV              NO
 2         IIGEPIIVA             YES
 3        NQGNILMDSI              NO
 4         RMPTDMLKL              NO
 5         YLSKEDRII              NO
 6         NILGGVLHT              NO
 7        GLDERFVEEL             YES
 8         ALKNSQAEL              NO
 9         VTPEYIKDL              NO
10        VIVVPVIDRL              NO
11        PVLEKKVCAI              NO
12        NLYISDYKML              NO
13         GIKNLKSLL              NO
14        GLYIPGTSVI              NO
15         IVQSVLRDI              NO
16        IASAPQQLCT              NO
17        NLLEQLIENI              NO
18         VIRNEVNDT              NO
19        KLPTWLGAAI             YES
20        LMSDNPKAST              NO
21        DIVSDSKKIM              NO
22         ELEKCTSEI              NO
23        SLKRFTHTTA             YES
24         GIDTSNNIA              NO
25        KLKVDSDSGL              NO
26         GINNVQSLI              NO
27        DMLLNVQTLI             YES
28         PTDMLKLFT              NO
29        TTENAAYQVL              NO
30         GLCNYGGIL              NO
31        TLFGRGVIDT             YES

* * *

Biological target: HLA-A*02:06
Assay: IEDB peptide-MHC binding, purified MHC/competitive/radioactivity; bounds were set here for any values at or beyond the usual limits of such assays
Conditions: source organism: Vaccinia virus WR
pIC50: −log10 of the molar value.
Entries get a class label from measured pIC50. See ranges: category 1 = under 6, category 2 = from 6 up to 7, category 3 = 7 and over

In [3]: df
Out[3]:
    primary_sequence  assigned_class
 0        KAKQLCYCPA      category 2
 1        EAAAATCALV      category 3
 2         IISYIILFI      category 3
 3         KILSDENYL      category 3
 4         ATLNTLITL      category 3
 5        HTYHLENDKI      category 1
 6        ITDDSDDYEL      category 3
 7        YVHEGVSYEV      category 3
 8         FMSHVKSVT      category 1
 9        NIVTFINDYA      category 2
10        DLLFNEKLKV      category 1
11         VIDRLPSET      category 1
12         GIFVDTMSI      category 1
13        DMLKLFTHDI      category 1
14        ATICLKNEGV      category 3
15        KLRSSPPIPM      category 1
16        DQDTMLFASA      category 1
17        TIVSRSSRGV      category 1
18         NAVTTNNLL      category 2
